The measurements presented in this section are drawn from patent US20220396632A1.

Target: T1, Recombinant human PSGL-1(ECD)-hFc1 (R&D Systems, Cat. 3345-PS) (human, UniProt Q14242 42-305)
T1 construct: Bought; Gln42-Val295 counted on AAC50061; also called PSGL-1-Fc; PSGL-1-hFc1 chimera; not shown: human IgG1 Fc, Pro100-Lys330
T1 sequence: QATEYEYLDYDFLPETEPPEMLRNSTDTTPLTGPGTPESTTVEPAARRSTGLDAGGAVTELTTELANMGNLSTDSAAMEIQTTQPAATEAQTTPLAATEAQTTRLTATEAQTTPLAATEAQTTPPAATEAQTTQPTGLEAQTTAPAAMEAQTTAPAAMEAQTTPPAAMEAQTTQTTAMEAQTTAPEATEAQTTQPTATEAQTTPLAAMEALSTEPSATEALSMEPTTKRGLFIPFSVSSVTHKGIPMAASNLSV
Test: ELISA, 50 nM mAb
Measured quantity: A450nm (A450nm)

binder="16L15 (antibody, V domains shown, From mouse immunisation; only variable domains given) VH: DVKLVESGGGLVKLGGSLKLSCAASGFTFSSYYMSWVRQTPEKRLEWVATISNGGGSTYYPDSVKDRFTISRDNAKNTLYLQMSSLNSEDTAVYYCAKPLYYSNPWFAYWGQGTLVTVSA VL: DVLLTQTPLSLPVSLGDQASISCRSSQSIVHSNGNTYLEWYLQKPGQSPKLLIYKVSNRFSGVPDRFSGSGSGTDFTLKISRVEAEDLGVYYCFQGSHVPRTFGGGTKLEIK" measured_quantity=A450nm reported_value=2.33
binder="03B04 (antibody, IgG4, V domains shown) VH: EVKLLESGGGLVKPGGSLRLSCAASGFAFSRYTMNWVRQAPGKGLEWVSSISSSSSYIYYADSVKGRFTISRDNAKNSLVLQMNSLRPEDTAVYYCARGGIAANDYWGQGTLVTVSS VL: EIVMTQTPLSLPVTLGQPASISCRSSRNLVHYDGNTYLSWFHQRPGQPPRRLIYKISNRESGVPDRFSGSGSGTDFTLKISRVEAEDVGVYYCLQHTHWPWTFGPGTKVEIK" measured_quantity=A450nm reported_value=1.7
binder="09D11 (antibody, IgG4, V domains shown) VH: QVQLVESGGGFIQPGGSLRLSCAASGLTFSNYAMTWVRQAPGKGLEWVSTISGGGGNTYYTDSVKGRFTISRDNSKNTLYLQMNSLKAEDTAVYRCAKGLAAALFDYWGQGTLVTVSS VL: DIVLTQSPDSLPVTPGEPASISCRSSRSLLHSNGHNFLAWYLQKPGQSPHLLIYLGSNRASGVPDRFSGSGSGTDFTLKISRVEAEDVGIYYCMQALQTPITFGQGTRLDIK" measured_quantity=A450nm reported_value=2.65
